B1: RAB22A (parent)
chain: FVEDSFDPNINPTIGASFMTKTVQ

- Variants of: B1
- assay details: protein stability index of a GFP-peptide fusion (GPS, HEK-293T) (PSI 1-6); higher = more stable;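 note: lentivirally expressed fusions sorted by FACS into six bins by GFP to DsRed ratio, PSI derived from sequencing read proportions per bin multiplied by bin number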
- run parameters: c terminus: a fixed tail appended
recorded metric: protein stability index
Number only, no unit.

mutant_designation=D4H measured=1.36

Value of measured protein stability index for the entry T13I : 1.75

Value of measured protein stability index for the entry E3T : 1.57

Value of measured protein stability index for the entry T22E : 2.91

Value of measured protein stability index for the entry V23C : 2.37
